Source listed as paper PMC5463187.

Reported plaque-reduction neutralization of RSV A2 (IC50) values for the following binders.
- System under test: RSV strain A2 pre-fusion F, single-chain triple mutant (SC-TM) construct (respiratory syncytial virus subgroup A …)
- Method notes: cell-based or functional assay
Recorded metric: plaque-reduction neutralization of RSV A2 (IC50)

INSERT INTO measurements (binder, measured_result) VALUES
  ('hRSV61 (antibody, V domains shown, also called mAb hRSV61) VH: QVQLVQSGAELKKPGASVKVSCKASGYTFTNHGITWVRQAPGQGLEWMSWISGYNGNTQYAQKFQGRVTMTTDTSTRTAYMELRSLTSDDTAVYYCARDNGVVVGPPDYWGQGTLVTVSS VL: DIQMTQSPSTLSASVGDRVTISCRASQSISSWLAWYQQKPGKPPKLLIYKASGLQTGVPSRFSGSGSGTEFTLTISSLQPDDFATYYCQYYHSLSAFGQGTKVEIK', '0.09 mg/L'),
  ('hRSV12 (antibody, V domains shown) VH: QVQLVQSGAEVKKPGTSVRVSCKTSGYNFMNYGIYWVRQAPGQGLEWVGWISAYNGQTDRAQKFQGRVTMTTDISTNTGYMDLRSLRSDDTAVYFCARGPPVIAAVSLEYWGRGTLVTVSS VL: EVVMTQSPLSLPVTLGQPASISCKSSQSLVHSNGDTYLNWFQQRPGQSPRRLIYKVSNRDSGVPDRFSGSGSGTDFTLKISRVETEDVGVYYCMQATHWPGSFGQGTKLEIK', '0.176 mg/L'),
  ('hRSV139 (antibody, V domains shown, also called mAb hRSV139) VH: QVQLVQSGAEVKKPGASVKVSCKASGYVFSNYGISWVRQAPGQGLEWMGWISAYNGNTEFAQKFQGRITMTTDTSTNTAYLEVRGLRSDDTAVYYCSRQSGVSGVPEFQDWGQGTLVTVSS VL: QAVVTQSPLSLPVTLGQPASISCRSSQSLVYSNGDTYLSWFQQRPGQSPRRLIYKVSNRDSGVPDRFSASGSGTDFTLKISRVEAEDVGVYYCMQGTHWPPPTFGQGTRLEIK', '0.323 mg/L');
